# MEASUREMENT TARGET: human P2Y12 receptor (Homo sapiens, UniProt Q9H244)
# Sequence (Q9H244 whole entry): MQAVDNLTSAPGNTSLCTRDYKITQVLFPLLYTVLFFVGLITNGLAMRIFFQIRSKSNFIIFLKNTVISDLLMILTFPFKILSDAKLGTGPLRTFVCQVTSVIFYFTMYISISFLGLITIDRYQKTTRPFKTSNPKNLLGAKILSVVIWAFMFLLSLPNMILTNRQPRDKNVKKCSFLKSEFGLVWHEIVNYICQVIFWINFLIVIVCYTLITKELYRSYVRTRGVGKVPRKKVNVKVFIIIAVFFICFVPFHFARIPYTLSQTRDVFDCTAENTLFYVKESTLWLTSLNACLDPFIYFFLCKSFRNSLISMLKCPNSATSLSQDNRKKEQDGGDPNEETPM
# TEST PROTOCOL: Human P2Y12 recombinant cell membrane binding assay with 33P 2MeS-ADP
# DETAILS: competition against 33P 2MeS-ADP, membranes of CHO cells with recombinant human P2Y12 receptor
PROPERTY LABEL: pIC50
Conceptually, pIC50 converts a concentration in mol/L into minus its log10.

-- ask Answer with the recorded pIC50 for the compound listed here: CCCCOC(=O)N1CCN(C(=O)[C@H](CCCCOCc2ccccc2)NC(=O)c2cc(OCC(=O)N3CCC[C@H]3C(=O)NC3CCC3)n(-c3ccccc3)n2)CC1
-- reply 7.64

-- ask Answer with reported pIC50 of CCCCOC(=O)N1CCN(C(=O)[C@H](CCC)NC(=O)c2cc(OCC(=O)N3CCC[C@H]3C(=O)NC3CCC3)n(-c3ccccc3)n2)CC1
-- reply 7.47

-- ask Return the recorded pIC50 value; entry: CCCOC(=O)N1CCN(C(=O)[C@H](C)NC(=O)c2cc(OCC(=O)N3CCC[C@H]3C(=O)NC3CCC3)n(-c3ccccc3)n2)CC1
-- reply 6.90

-- ask Check the records and state pIC50 for CCOC(=O)N1CCN(C(=O)[C@H](CCNC(=O)C2CC2)NC(=O)c2cc(OCC(=O)N3CCC[C@H]3C(=O)NC3CCC3)n(-c3ccccc3)n2)CC1
-- reply 7.12

-- ask Given CCOC(=O)N1CCN(C(=O)[C@H](CCC(=O)O)NC(=O)c2cc(OCC(=O)N3CCC[C@H]3C(=O)NCC(F)F)n(-c3ccccc3)n2)CC1 , respond with its pIC50.
-- reply 6.79

-- ask Let me know recorded pIC50 for CCOC(=O)N1CCN(C(=O)[C@H](CCCCOC(C)=O)NC(=O)c2cc(OCC(=O)N3CCC[C@H]3C(=O)NC3CCC3)n(-c3ccccc3)n2)CC1 , thanks.
-- reply 7.52

###

# MEASUREMENT TARGET: human P2Y12 receptor (Homo sapiens)
# TEST PROTOCOL: Human P2Y12 recombinant cell membrane binding assay with 33P 2MeS-ADP
# DETAILS: competition against 33P 2MeS-ADP, membranes of CHO cells with recombinant human P2Y12 receptor
Give measured IC50 for each item. Keep answers brief.
The answer is to be given in nM; state only the numeric part.

-- ask Name the recorded IC50 of the compound listed here: CCOC(=O)N1CCN(C(=O)[C@H](CNC(=O)C2CC2)NC(=O)c2cc(OCC(=O)N3CCC[C@H]3C(=O)NC3CCC3)n(-c3ccccc3)n2)CC1
-- reply 130

-- ask Return the recorded IC50 value; entry: CCOC(=O)N1CCN(C(=O)[C@H](CCC(=O)O)NC(=O)c2cc(OCC(=O)N3CCC[C@H]3C(=O)NC3CCC3)n(-c3ccccc3)n2)CC1
-- reply 19

-- ask Please indicate IC50 recorded for CCOC(=O)N1CCN(C(=O)[C@H](CCC(=O)O)NC(=O)c2cc(OCC(=O)N3CCCC3c3cccs3)n(-c3ccccc3)n2)CC1 (some centres unmarked)
-- reply 146

-- ask Identify measured IC50 corresponding to CCCCOC(=O)N1CCN(C(=O)[C@H](CCC(=O)OC)NC(=O)c2cc(OCC(=O)N3CCC[C@H]3C(=O)NC3CCC3)n(-c3ccccc3)n2)CC1
-- reply 6

-- ask State, in one line, measured IC50 of CCOC(=O)N1CCN(C(=O)[C@H](CCNC(=O)OC)NC(=O)c2cc(OCC(=O)N3CCC[C@H]3C(=O)NC3CCC3)n(-c3ccccc3)n2)CC1
-- reply 108

-- ask Annotate the compound CCOC(=O)N1CCN(C(=O)[C@H](CCCCOCc2ccccc2)NC(=O)c2cc(OCC(=O)N3CCC[C@H]3C(=O)NC3CCC3)n(-c3ccccc3)n2)CC1 with its measured IC50.
-- reply 88

-- ask Specify measured IC50 for CCCCOC(=O)N1CCN(C(=O)[C@H](CCC(=O)O)NC(=O)c2cc(OCC(=O)N3CCC[C@H]3C(=O)NC3CC3)n(-c3ccccc3)n2)CC1 .
-- reply 9

-- ask Retrieve IC50 measured for CCOC(=O)N1CCN(C(=O)[C@H](CCC(=O)O)NC(=O)c2cc(OCC(=O)N3CCC[C@H]3C(=O)NCC(F)(F)F)n(-c3ccccc3)n2)CC1 and print it.
-- reply 120

-- ask Check the records and state IC50 for CCCCOC(=O)N1CCN(C(=O)[C@H](CCCO)NC(=O)c2cc(OCC(=O)N3CCC[C@H]3C(=O)NC3CCC3)n(-c3ccccc3)n2)CC1
-- reply 17

-- ask Entry CCCCOC(=O)N1CCN(C(=O)[C@H](CCC(=O)O)NC(=O)c2cc(OCC(=O)N3CCC[C@H]3C(=O)N(C)C3CCC3)n(-c3ccccc3)n2)CC1 needs its IC50 filled in; supply it.
-- reply 71

-- ask Retrieve IC50 measured for CCOC(=O)N1CCN(C(=O)[C@H](CF)NC(=O)c2cc(OCC(=O)N3CCC[C@H]3C(=O)NC3CCC3)n(-c3ccccc3)n2)CC1 and print it.
-- reply 18

-- ask Identify IC50 associated with the compound CCCCOC(=O)N1CCN(C(=O)[C@H](CC(F)(F)F)NC(=O)c2cc(OCC(=O)N3CCC[C@H]3C(=O)NC3CCC3)n(-c3ccccc3)n2)CC1
-- reply 36

-- ask // Input: CCOC(=O)N1CCN(C(=O)[C@H](CC(=O)O)NC(=O)c2cc(OCC(=O)N3CCC[C@H]3C(=O)NCC3CC3)n(-c3cccc(F)c3)n2)CC1 . Output its IC50 only.
-- reply 28

-- ask Could you please provide reported IC50 for CCCCOC(=O)N1CCN(C(=O)CNC(=O)c2cc(OCC(=O)N3CCC[C@H]3C(=O)NC3CCC3)n(-c3ccccc3)n2)CC1 ? Thanks!
-- reply 20

-- ask Quote IC50 reported for CCOC(=O)C(=O)NC[C@H](NC(=O)c1cc(OCC(=O)N2CCC[C@H]2C(=O)NC2CCC2)n(-c2ccccc2)n1)C(=O)N1CCN(C(=O)OCC)CC1 please.
-- reply 35

-- ask Recall and state the measured IC50 for COc1cccc(N2CCN(C(=O)[C@H](CCC(=O)O)NC(=O)c3cc(OCC(=O)N4CCC[C@H]4C(=O)NC4CCC4)n(-c4ccccc4)n3)CC2)c1 .
-- reply 77

-- ask In one line, give reported IC50 of the entry CCOC(=O)N1CCN(C(=O)[C@H](CCC(=O)O)NC(=O)c2cc(OCC(=O)N3CCC[C@H]3C(=O)NC3CCC3)n(-c3ccccc3)n2)[C@H](C)C1 .
-- reply 20

-- ask Let me know recorded IC50 for CCOC(=O)N1CCN(C(=O)[C@H](CCC(=O)O)NC(=O)c2cc(OCC(=O)N3CCC[C@H]3C(=O)NCC3CC3)n(-c3cccc(F)c3)n2)CC1 , thanks.
-- reply 182

-- ask Give a short answer stating reported IC50 for CCOC(=O)N1CCN(C(=O)[C@H](CCC(=O)O)NC(=O)c2cc(OCC(=O)N3CCC[C@H]3C(=O)NC(C)C)n(-c3ccccc3)n2)CC1 .
-- reply 146

-- ask Please look at this compound and report its IC50: CCOC(=O)CC[C@H](NC(=O)c1cc(OCC(=O)N2CCC[C@H]2C(=O)NC2CCC2)n(-c2cccc(F)c2)n1)C(=O)N1CCN(C(=O)OCC)CC1
-- reply 173

-- ask Answer with the recorded IC50 for the compound listed here: CCCCOC(=O)NC1CCN(C(=O)[C@H](CCC(=O)O)NC(=O)c2cc(OCC(=O)N3CCC[C@H]3C(=O)NC3CCC3)n(-c3ccccc3)n2)CC1
-- reply 58

-- ask Quickly give me recorded IC50 for CCCCOC(=O)N1CCN(C(=O)[C@@H](NC(=O)c2cc(OCC(=O)N3CCC[C@H]3C(=O)NC3CCC3)n(-c3ccccc3)n2)C2CC2)CC1
-- reply 14

-- ask For the compound CCOC(=O)N1CCN(C(=O)[C@H](CCNC(=O)C(C)C)NC(=O)c2cc(OCC(=O)N3CCC[C@H]3C(=O)NC3CCC3)n(-c3ccccc3)n2)CC1 , give its reported IC50.
-- reply 197

Reference source for all entries: patent US8426420B2
